Target: Neutrophil elastase (Homo sapiens) (UniProt P08246)
Sequence (whole entry): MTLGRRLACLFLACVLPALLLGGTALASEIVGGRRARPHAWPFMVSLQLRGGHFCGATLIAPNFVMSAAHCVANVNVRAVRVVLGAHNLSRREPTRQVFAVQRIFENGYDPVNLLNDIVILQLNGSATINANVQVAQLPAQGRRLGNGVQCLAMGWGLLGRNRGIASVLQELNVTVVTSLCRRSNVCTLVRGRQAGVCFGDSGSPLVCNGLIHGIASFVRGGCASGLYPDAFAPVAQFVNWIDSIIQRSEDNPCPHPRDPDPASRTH
Test: In vitro inhibitory activity against human leukocyte elastase (HLE), at a concentration of 1.5 uM
endpoint: inhibition (%)

Some molecules with recorded inhibition:
CCOC(=O)C1CCC(c2nc3ccccc3c(=O)o2)=CC1C (stereo not given): 6
O=c1oc(-c2ccco2)nc2ccccc12: 22.6
O=c1oc(/C2=C/CCCCCC2)nc2ccccc12: 23

(I) O=c1oc(-c2ccccc2)nc2ccccc12
(II) COc1ccc2c(c1)CCC=C2c1nc2ccccc2c(=O)o1
Task: // pick min by inhibition: I , II Indicate your choice by writing its label.
Output: I
(I: 16.2%, II: 69.9%)

----------
Biological target: Neutrophil elastase (Homo sapiens)
Sequence (whole entry): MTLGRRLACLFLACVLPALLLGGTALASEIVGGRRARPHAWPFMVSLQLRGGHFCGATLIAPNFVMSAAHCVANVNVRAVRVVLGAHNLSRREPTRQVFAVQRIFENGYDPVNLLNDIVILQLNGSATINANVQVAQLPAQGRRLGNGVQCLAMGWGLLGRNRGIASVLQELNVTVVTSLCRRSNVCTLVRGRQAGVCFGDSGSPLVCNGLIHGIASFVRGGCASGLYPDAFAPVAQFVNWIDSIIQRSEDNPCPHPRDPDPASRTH
Test: In vitro inhibitory activity against human leukocyte elastase (HLE), at a concentration of 15 uM
endpoint: inhibition (%)

O=c1oc(-c2ccco2)nc2ccccc12: 65
O=c1oc(-c2ccccc2)nc2ccccc12: 45.7

(a) O=c1oc(/C2=C/CCCCCC2)nc2ccccc12
(b) CCOC(=O)C1CCC(c2nc3ccccc3c(=O)o2)=CC1C (stereo not given)
(c) COc1ccc2c(c1)CCC=C2c1nc2ccccc2c(=O)o1
Task: Arrange the 3 compounds by rising inhibition, starting with the smallest. Give your ranking as a list of the labels in the requested order.
Output: b, a, c

----------
Target: Neutrophil elastase (Homo sapiens)
Sequence (whole entry): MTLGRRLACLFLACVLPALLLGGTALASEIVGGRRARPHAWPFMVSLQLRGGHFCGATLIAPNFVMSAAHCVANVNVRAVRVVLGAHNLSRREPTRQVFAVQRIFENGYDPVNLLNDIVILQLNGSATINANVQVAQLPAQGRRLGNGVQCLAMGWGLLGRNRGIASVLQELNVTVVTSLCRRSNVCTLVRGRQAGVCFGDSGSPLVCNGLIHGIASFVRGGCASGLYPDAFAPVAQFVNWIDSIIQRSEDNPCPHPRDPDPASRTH
Assay: In vitro inhibitory activity against human leukocyte elastase (HLE), at a concentration of 75 uM
endpoint: inhibition (%)

Worked examples, 3 compounds total:
O=c1oc(-c2ccco2)nc2ccccc12: 88.7
O=c1oc(/C2=C/CCCCCC2)nc2ccccc12: 87
O=c1oc(-c2ccccc2)nc2ccccc12: 76

(A) COc1ccc2c(c1)CCC=C2c1nc2ccccc2c(=O)o1
(B) CCOC(=O)C1CCC(c2nc3ccccc3c(=O)o2)=CC1C (stereo not given)
Task: Which record would sort first by descending inhibition, A or B ? In your reply, give the label of the chosen option.
Output: A
